Reference source for all entries: the NTF2 design screens of Basanta et al. (2020)

ASSAY INFO: protease stability score; higher = more stable; yeast display proteolysis, trypsin and chymotrypsin;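 further: relative to predicted unfolded state with 0 unfolded-like and 1 meaning tenfold more protease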
Listing: protease stability score of selected sequences

[
  {
    "ITEM SEQUENCE": "DEHEEHVHEITRLIIEAELTGDFERMKKMFDPNAKLILLINGREDTNHGMDFVRFWLKEHLERVDHRRVELKRWDVVNGVSHNDVTLHLEVGEWKITVKMHLHIVVVDGRLKSIKIEIR",
    "protease stability score": 1.4
  },
  {
    "ITEM SEQUENCE": "KDTKRALDELSELELHADETGDWRVKHELLDPHTRIVIGDKTIHGREDMLTLMKKLQEHWRLKTIEIHHTEVVDGRIDADTILVGIVDGVERELRVRLIILKINGRWIYTSIKFD",
    "protease stability score": 1.14
  },
  {
    "ITEM SEQUENCE": "DEEHKEREDVAREIITLLLTGDEEIWLSMMDPHTRININGKYAIGRENIEEIIKDLLRRIPNIRIIMQDMKIQGDKVTIHGIHNVNGREHEWRVHIISVNGRIKSIEVRIH",
    "protease stability score": 1.47
  },
  {
    "ITEM SEQUENCE": "EEDQKMLEMVFRIILDLWITGDFDLIERLLDPDVRLDSKIGDKTVHHHGREEVAKHLFHIRIEDFIIHRVHVQGDKITINGELDGHFNGKRFNSEIHIHYVVINGRIRRLSFEEN",
    "protease stability score": 2.2
  },
  {
    "ITEM SEQUENCE": "DHREEHDHEISELMREALLTGDEQLISHLADPNVRFEVFVGDKVIRWVGRESMMEAFERWVREIRIEDLKVKHVDIFNGRVDVVTTLHVEFDGRKHDLETRLIFEVVDGKVKHLQVHHH",
    "protease stability score": 1.36
  },
  {
    "ITEM SEQUENCE": "SELEEQERTHIHKLMNAIETGDEDLFRRLFDPNVRVDVDGVEFIGREHLLILLRHMRMHARHFKEEDFSVQGDKVHLYGHLDEEIEINGKVTRRHIHVTWVLVKVNGKWVIHSQYVL",
    "protease stability score": 1.41
  },
  {
    "ITEM SEQUENCE": "DETEEMARLFNEEVRHSWKTGNEEHIKRLIDPHAKVHIGDKELHGRERATETIRKLGVKHLEIDDIHIIDGRVHVDGTLDVDGQSFRVEIILSKVNGRWLNEEIRIH",
    "protease stability score": -0.344
  },
  {
    "ITEM SEQUENCE": "DEEDERNLKLFHLAMLASITGNEELIEQLVDPDVRIEINGRDKHGRETLIKLLERFDHFQWHRFHWRRLEIQGNKIIMLLEVHGTIHIGEFKIKLQTDTISIVTKIDGRWTIKELYIK",
    "protease stability score": 1.62
  },
  {
    "ITEM SEQUENCE": "REEEKDIRDVLKLWKDISRTGDEHLIRRLVDPNARLNFNGREIHGREDVAEFLLRRWRQIDHLEIIDRDVRYQGDKVEFHGHVREKIGDKEETYELEFILVKIDGRWLVHSLHVH",
    "protease stability score": 2.43
  },
  {
    "ITEM SEQUENCE": "REEEEEMEELVRRIIHLLKTGDEREFNRLLDPDARVDDGDWHDHGREAWNKWSEKLRRDAGHENIEFHVRHFEVINGRIIMETKVHIGDKTLDTRLIFVVINGRLTSVRLEIH",
    "protease stability score": 0.037
  }
]

# protease stability score of DEMEESAERMIEIYLRWLETGDEDSLVENIDPNVRVEIGDKRYHGREEVMHFLSSIQQRIKGARFHLKHFEIQGEYVDIHMEQRVGDKTMDRRVIFQKIDGRWLLKRSQVR = 1.5
